Target: rat B1R (bradykinin receptor 1) (Rattus norvegicus)
Construct: expressed in transfected cells; host or cells: CHO K1 cells
Sequence (P97583 whole entry): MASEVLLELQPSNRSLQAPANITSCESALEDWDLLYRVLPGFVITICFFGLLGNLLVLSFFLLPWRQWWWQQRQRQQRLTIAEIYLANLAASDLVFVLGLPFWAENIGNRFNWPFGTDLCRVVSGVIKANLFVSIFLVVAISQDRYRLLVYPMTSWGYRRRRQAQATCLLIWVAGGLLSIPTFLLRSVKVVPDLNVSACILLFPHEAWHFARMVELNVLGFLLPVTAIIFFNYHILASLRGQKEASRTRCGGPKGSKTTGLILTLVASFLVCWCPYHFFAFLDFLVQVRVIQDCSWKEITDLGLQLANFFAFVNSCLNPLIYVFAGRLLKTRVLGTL
Assay: FLIPR Ca2+ assay (Fluo-4) on CHO K1 cells stably transfected with the B1R gene of the rat (rB1R cells): % inhibition at 10 μM / IC50, agonist Des-Arg9-bradykinin
Assay type: cell-based
Conditions: CHO-K1, rat B1R
value.kind: inhibition at 10 µM (%)

Use the examples below as a reference point.
{"columns": ["compound", "inhibition at 10 µM / %"],
 "data": [
  ["Cc1cccc(C)c1C(=O)NC1CCc2ccc(C(=O)N3CCC4(CC3)CCN(c3ccncc3)CC4)cc21 (centres unmarked)", 105],
  ["CCC(CC)CN1CCC2(CC1)CCN(C(=O)c1ccc3c(c1)C(NC(=O)c1cccc(Cl)c1Cl)CC3)C2 (centres unmarked)", 70],
  ["CC(C)S(=O)(=O)N1CCC2(CCN(C(=O)c3ccc4c(c3)C(NC(=O)c3ccccc3Cl)CC4)CC2)CC1 (centres unmarked)", 102],
  ["O=C(c1ccc2c(c1)C(NS(=O)(=O)Cc1ccccc1C(F)(F)F)CC2)N1CCC2(CC1)CCN(c1ccncc1)CC2 (centres unmarked)", 96],
  ["N#Cc1ccc(CN2CCC3(CC2)CCN(C(=O)c2ccc4c(c2)C(NC(=O)c2cc(Cl)ccc2F)CC4)CC3)cc1 (centres unmarked)", 64],
  ["O=C(N[C@@H]1CCOc2cc(F)c(C(=O)N3CCC4(CC3)CCN(c3ccncc3)CC4)cc21)c1ccccc1Cl", 104],
  ["O=C(N[C@@H]1CCCc2ccc(C(=O)N3CCC4(CC3)CCN(c3ccncc3)CC4)cc21)c1ccccc1Cl", 102],
  ["O=C(c1ccc2c(c1)C(N(C(=O)c1ccccc1Cl)C1CC1)CC2)N1CCC2(CCN(S(=O)(=O)c3ccc(Cl)s3)CC2)C1 (centres unmarked)", 67],
  ["O=C(NC1CCc2ccc(C(=O)N3CCC4(CC3)CCN(c3ccncc3)CC4)cc21)C1CCCCC1 (centres unmarked)", 103],
  ["O=C(NC1CCc2ccc(C(=O)N3CCC4(CC3)CCN(c3ccc(C(F)(F)F)cc3)CC4)cc21)c1c(Cl)cccc1Cl (centres unmarked)", 90]
]}

[I] COc1ccc(C(=O)NC2CCc3ccc(C(=O)N4CCC5(CCN(c6ccncc6)CC5)C4)cc32)c(F)c1 (centres unmarked)
[II] COc1cc(C)c(C(=O)NC2CCc3ccc(C(=O)N4CCC5(CC4)CCN(c4ccc(F)cc4)CC5)cc32)c(C)c1 (centres unmarked)
Problem: Please state the entry with greater inhibition at 10 µM among I and II . Your answer should be the label attached to the chosen record.
Result: I
(I: 95%, II: 50%)

These data points were gathered from patent US8455475B2.
